method.summary: Inhibition of Listeria monocytogenes C-terminal His6-tagged NADK1 harboring Staphylococcus aureus COL NADK segment 1 expressed in Escherichia coli BL21(DE3) assessed as reduction in NADP production using NAD as substrate by glucose-6-phosphate dehydrogenase coupled enzyme based spectrophotometric method

{"given.smiles": "[N-]=[N+]=NC[C@H]1O[C@@H](n2c(SCC(=O)NCCc3cccc(Br)c3)nc3c(N)ncnc32)[C@H](O)[C@@H]1O", "Ki [nM]": 2500}

----------
method.summary: Inhibition of Bacillus subtilis NADK1 S132P mutant expressed in Escherichia coli BL21(DE3) assessed as reduction in NADP production using NAD as substrate by glucose-6-phosphate dehydrogenase coupled enzyme based spectrophotometric method
value.type: Ki (µM)

{"given.smiles": "[N-]=[N+]=NC[C@H]1O[C@@H](n2c(SCC(=O)NCCc3cccc(Br)c3)nc3c(N)ncnc32)[C@H](O)[C@@H]1O", "measured.number": 100}

----------
method.summary: Competitive inhibition of Listeria monocytogenes C-terminal His6-tagged NADK1 expressed in Escherichia coli BL21(DE3) assessed as reduction in NADP production using varying levels of NAD as substrate by glucose-6-phosphate dehydrogenase coupled enzyme based spectrophotometric method
Listing: Ki of selected compounds

{"given.smiles": "[N-]=[N+]=NC[C@H]1O[C@@H](n2c(SCC(=O)NCCc3ccccc3)nc3c(N)ncnc32)[C@H](O)[C@@H]1O", "Ki / µM": 5}
{"given.smiles": "Nc1ncnc2c1nc(SCC(=O)NCCc1cccc(Br)c1)n2[C@@H]1O[C@H](CO)[C@@H](O)[C@H]1O", "Ki / µM": 2}
{"given.smiles": "COc1ccc2[nH]cc(CCNC(=O)CSc3nc4c(N)ncnc4n3[C@@H]3O[C@H](CN=[N+]=[N-])[C@@H](O)[C@H]3O)c2c1", "Ki / µM": 5}
{"given.smiles": "Nc1ncnc2c1nc(SCC(=O)NCCc1ccc(C(F)(F)F)cc1)n2[C@@H]1O[C@H](CO)[C@@H](O)[C@H]1O", "Ki / µM": 10}

----------
Listing: Ki of selected compounds
target.desc: NAD kinase (Homo sapiens)
method.summary: Inhibition of human NADK expressed in Escherichia coli BL21(DE3) assessed as reduction in NADP production using NAD as substrate by glucose-6-phosphate dehydrogenase coupled enzyme based spectrophotometric method
value.type: Ki (µM)

{"given.smiles": "Nc1ncnc2c1nc(SCC(=O)NCCc1cccc(Cl)c1)n2[C@@H]1O[C@H](CO)[C@@H](O)[C@H]1O", "measured.number": 200}
{"given.smiles": "Nc1ncnc2c1nc(SCC(=O)NCCc1cccc(Br)c1)n2[C@@H]1O[C@H](CO)[C@@H](O)[C@H]1O", "measured.number": 335}
{"given.smiles": "[N-]=[N+]=NC[C@H]1O[C@@H](n2c(SCC(=O)NCCc3ccc(C(F)(F)F)cc3)nc3c(N)ncnc32)[C@H](O)[C@@H]1O", "measured.number": 230}
{"given.smiles": "C[C@H]1O[C@@H](n2c(SCC(=O)NCCc3ccc(Cl)c(Cl)c3)nc3c(N)ncnc32)[C@H](O)[C@@H]1O", "measured.number": 180}
{"given.smiles": "COc1ccc2[nH]cc(CCNC(=O)CSc3nc4c(N)ncnc4n3[C@@H]3O[C@H](CN=[N+]=[N-])[C@@H](O)[C@H]3O)c2c1", "measured.number": 160}
{"given.smiles": "[N-]=[N+]=NC[C@H]1O[C@@H](n2c(SCC(=O)NCCc3ccc(Cl)c(Cl)c3)nc3c(N)ncnc32)[C@H](O)[C@@H]1O", "measured.number": 140}
{"given.smiles": "CN(C)S(=O)(=O)NC[C@H]1O[C@@H](n2c(SCC(=O)NCCc3ccc(Cl)c(Cl)c3)nc3c(N)ncnc32)[C@H](O)[C@@H]1O", "measured.number": 160}

----------
Listing: pKi of selected compounds
method.summary: Competitive inhibition of Listeria monocytogenes C-terminal His6-tagged NADK1 expressed in Escherichia coli BL21(DE3) assessed as reduction in NADP production using varying levels of NAD as substrate by glucose-6-phosphate dehydrogenase coupled enzyme based spectrophotometric method
pKi: −log10 of the molar value.
value.type: pKi

{"given.smiles": "C#Cc1cccc(CCNC(=O)CSc2nc3c(N)ncnc3n2[C@@H]2O[C@H](CN=[N+]=[N-])[C@@H](O)[C@H]2O)c1", "measured.number": 5.22}
{"given.smiles": "[N-]=[N+]=NC[C@H]1O[C@@H](n2c(SCC(=O)NCCc3ccc(C(F)(F)F)cc3)nc3c(N)ncnc32)[C@H](O)[C@@H]1O", "measured.number": 5.12}
{"given.smiles": "CN(C)S(=O)(=O)NC[C@H]1O[C@@H](n2c(SCC(=O)NCCc3ccc(Cl)c(Cl)c3)nc3c(N)ncnc32)[C@H](O)[C@@H]1O", "measured.number": 5.46}
{"given.smiles": "COc1ccc2[nH]cc(CCNC(=O)CSc3nc4c(N)ncnc4n3[C@@H]3O[C@H](CO)[C@@H](O)[C@H]3O)c2c1", "measured.number": 4.40}

----------
target.desc: NAD kinase (Homo sapiens, UniProt O95544)
method.summary: Inhibition of human NADK expressed in Escherichia coli BL21(DE3) assessed as reduction in NADP production using NAD as substrate by glucose-6-phosphate dehydrogenase coupled enzyme based spectrophotometric method

{"given.smiles": "[N-]=[N+]=NC[C@H]1O[C@@H](n2c(SCC(=O)NCc3ccnc(Cl)c3)nc3c(N)ncnc32)[C@H](O)[C@@H]1O", "Ki, µM": 220}
{"given.smiles": "[N-]=[N+]=NC[C@H]1O[C@@H](n2c(SCC(=O)NCCc3ccccc3)nc3c(N)ncnc32)[C@H](O)[C@@H]1O", "Ki, µM": 350}
{"given.smiles": "C#CCNC(=O)CSc1nc2c(N)ncnc2n1[C@@H]1O[C@H](CN=[N+]=[N-])[C@@H](O)[C@H]1O", "Ki, µM": 140}
{"given.smiles": "[N-]=[N+]=NC[C@H]1O[C@@H](n2c(SCC(=O)NCCc3cccc(C(F)(F)F)c3)nc3c(N)ncnc32)[C@H](O)[C@@H]1O", "Ki, µM": 300}
{"given.smiles": "Nc1ncnc2c1nc(SCC(=O)NCCc1c[nH]c3ccc(Cl)cc13)n2[C@@H]1O[C@H](CO)[C@@H](O)[C@H]1O", "Ki, µM": 775}
{"given.smiles": "Nc1ncnc2c1nc(SCC(=O)NCCc1ccc(Br)cc1)n2[C@@H]1O[C@H](CO)[C@@H](O)[C@H]1O", "Ki, µM": 250}
{"given.smiles": "Cn1cc(CCNC(=O)CSc2nc3c(N)ncnc3n2[C@@H]2O[C@H](CN=[N+]=[N-])[C@@H](O)[C@H]2O)c2ccccc21", "Ki, µM": 350}

----------
target.desc: NAD kinase (Homo sapiens)
Sequence (O95544 whole entry): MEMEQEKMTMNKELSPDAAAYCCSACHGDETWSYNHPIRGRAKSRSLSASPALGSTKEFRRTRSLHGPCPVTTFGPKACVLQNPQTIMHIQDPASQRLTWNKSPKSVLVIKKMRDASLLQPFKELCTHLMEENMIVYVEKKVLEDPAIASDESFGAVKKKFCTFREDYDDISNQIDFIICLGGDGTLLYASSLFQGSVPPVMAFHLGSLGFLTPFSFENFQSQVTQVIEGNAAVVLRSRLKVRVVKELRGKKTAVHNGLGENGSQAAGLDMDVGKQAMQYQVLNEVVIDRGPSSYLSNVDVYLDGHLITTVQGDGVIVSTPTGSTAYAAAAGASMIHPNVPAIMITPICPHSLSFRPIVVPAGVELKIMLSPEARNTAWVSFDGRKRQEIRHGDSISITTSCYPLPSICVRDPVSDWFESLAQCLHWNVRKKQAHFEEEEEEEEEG
method.summary: Inhibition of human NADK expressed in Escherichia coli BL21(DE3) assessed as reduction in NADP production using NAD as substrate by glucose-6-phosphate dehydrogenase coupled enzyme based spectrophotometric method
# strict inequality: Ki < 200 µM yields satisfied, everything else yields not satisfied

{"given.smiles": "NC[C@H]1O[C@@H](n2c(SCC(=O)NCCc3ccc(Cl)c(Cl)c3)nc3c(N)ncnc32)[C@H](O)[C@@H]1O", "class.assignment": "satisfied"}
{"given.smiles": "NC[C@H]1O[C@@H](n2c(SCC(=O)NCCc3ccc(Br)cc3)nc3c(N)ncnc32)[C@H](O)[C@@H]1O", "class.assignment": "satisfied"}
{"given.smiles": "[N-]=[N+]=NC[C@H]1O[C@@H](n2c(SCC(=O)NCCCc3ccccc3)nc3c(N)ncnc32)[C@H](O)[C@@H]1O", "class.assignment": "satisfied"}
{"given.smiles": "[N-]=[N+]=NC[C@H]1O[C@@H](n2c(SCC(=O)NCCc3cccc(Br)c3)nc3c(N)ncnc32)[C@H](O)[C@@H]1O", "class.assignment": "not satisfied"}
{"given.smiles": "[N-]=[N+]=NC[C@H]1O[C@@H](n2c(SCC(=O)NCCc3ccc4ccccc4c3)nc3c(N)ncnc32)[C@H](O)[C@@H]1O", "class.assignment": "satisfied"}
{"given.smiles": "[N-]=[N+]=NC[C@H]1O[C@@H](n2c(SCC(=O)NCCc3c[nH]c4ccccc34)nc3c(N)ncnc32)[C@H](O)[C@@H]1O", "class.assignment": "satisfied"}
{"given.smiles": "[N-]=[N+]=NC[C@H]1O[C@@H](n2c(SCC(=O)NCCc3ccc(Cl)cc3)nc3c(N)ncnc32)[C@H](O)[C@@H]1O", "class.assignment": "not satisfied"}
{"given.smiles": "Nc1ncnc2c1nc(SCC(=O)NCCc1ccc(Cl)c(Cl)c1)n2[C@@H]1O[C@H](CO)[C@@H](O)[C@H]1O", "class.assignment": "not satisfied"}
{"given.smiles": "[N-]=[N+]=NC[C@H]1O[C@@H](n2c(SCC(=O)NCCc3nc4ccccc4[nH]3)nc3c(N)ncnc32)[C@H](O)[C@@H]1O", "class.assignment": "not satisfied"}

Recorded values, source ChEMBL document CHEMBL3875180.
